target: human glycolate oxidase (hGO) (Homo sapiens)
Construct: His-tag (6 histidines) (N)
Sequence (Q9UJM8 whole entry): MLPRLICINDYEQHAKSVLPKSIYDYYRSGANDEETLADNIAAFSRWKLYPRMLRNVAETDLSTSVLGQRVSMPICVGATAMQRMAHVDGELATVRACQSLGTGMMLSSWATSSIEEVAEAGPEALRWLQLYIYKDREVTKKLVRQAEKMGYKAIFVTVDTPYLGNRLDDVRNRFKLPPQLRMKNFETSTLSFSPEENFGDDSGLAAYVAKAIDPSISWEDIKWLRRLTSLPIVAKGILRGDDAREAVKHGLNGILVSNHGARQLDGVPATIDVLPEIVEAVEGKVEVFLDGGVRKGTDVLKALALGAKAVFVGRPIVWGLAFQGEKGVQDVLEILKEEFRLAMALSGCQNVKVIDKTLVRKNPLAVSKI
protocol-details: In vitro inhibition of human glycolate oxidase (enzymatic assay, coupled HRP/Trinder reaction)
protocol-conditions: recombinant hGO, 40 mM glycolic acid, pH 7, activity at 1 minute, read at 515 nm
pIC50: −log10 of the molar value.
pIC50 values for the molecules below.

O=C(O)c1nn[nH]c1Oc1ccc(-c2ccc(C3CCC(F)(F)CC3)cc2)cc1 [Ic-1] ... > 7.00

Please examine the following record next.
Need pIC50 of O=C(O)c1nn[nH]c1Oc1ccc(-c2ccc(C3CCC(F)(F)C3)cc2)cc1 (centres unmarked) [Ib-1] , thanks. > 7.00
